Test system: Escherichia coli TOP10
Test: shrunken log2 fold change of peptide-encoding DNA abundance (4.5 h post-induction vs induction); higher = less antimicrobial activity (less host growth inhibition)
Conditions: time post-induction: 4.5 h; library: site-saturation at positions 5, 18, 19, 20

INPUT SEQUENCE	shrunken log2 fold change
RRIRIRPPRLPRPRPRPSMNPRP	-0.717
RRIRLRPPRLPRPRPRPVSFPRP	0.0353
RRIRPRPPRLPRPRPRPMTHPRP	-0.268
RRIRARPPRLPRPRPRPLEMPRP	0.75
RRIRHRPPRLPRPRPRPHCNPRP	-0.158
RRIRFRPPRLPRPRPRPSRSPRP	-0.104
RRIRRRPPRLPRPRPRPWMLPRP	0.227
RRIRERPPRLPRPRPRPTRWPRP	0.353
RRIRCRPPRLPRPRPRPMGPPRP	0.128
RRIRYRPPRLPRPRPRPHPPPRP	0.374
RRIRERPPRLPRPRPRPHFIPRP	-0.573
RRIRFRPPRLPRPRPRPIKNPRP	-0.514
RRIRDRPPRLPRPRPRPSDQPRP	0.204
RRIRQRPPRLPRPRPRPNHKPRP	-0.493
RRIRPRPPRLPRPRPRPEDDPRP	0.413
RRIRCRPPRLPRPRPRPDCQPRP	-0.0895
RRIRNRPPRLPRPRPRPDLGPRP	0.0328
RRIRMRPPRLPRPRPRPERNPRP	0.0507
RRIRFRPPRLPRPRPRPRHTPRP	-0.00169
RRIRMRPPRLPRPRPRPDVEPRP	3.52
RRIRARPPRLPRPRPRPEERPRP	1.11
RRIRKRPPRLPRPRPRPFSRPRP	0.238
RRIRTRPPRLPRPRPRPCIMPRP	-0.2
RRIRFRPPRLPRPRPRPKQHPRP	-0.176
RRIRPRPPRLPRPRPRPTFQPRP	0.408
RRIRHRPPRLPRPRPRPQNSPRP	-0.423
RRIRCRPPRLPRPRPRPLAVPRP	0.0263
RRIRSRPPRLPRPRPRPDWNPRP	-0.298
RRIRGRPPRLPRPRPRPSAYPRP	1.07
RRIRCRPPRLPRPRPRPMCGPRP	-0.0984
RRIRLRPPRLPRPRPRPWAVPRP	0.0558
RRIRLRPPRLPRPRPRPPHAPRP	1.2

---

System: Escherichia coli TOP10;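 note: peptides expressed intracellularly from a pBAD plasmid library in pooled LB shake-flask culture, induced with 0.3% L-arabinose, DNA abundance read by NGS, three biological replicates, DESeq2 with apeglm shrinkage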
Assay: shrunken log2 fold change of peptide-encoding DNA abundance (4.5 h post-induction vs induction); higher = less antimicrobial activity (less host growth inhibition)
Conditions: time post-induction: 4.5 h; library: site-saturation at positions 5, 18, 19, 20
Respond with condition met for shrunken log2 fold change values of 0.2 and above, condition not met for values below.

INPUT SEQUENCE	DISCRETE LABEL
RRIRCRPPRLPRPRPRPEWAPRP	condition met
RRIRDRPPRLPRPRPRPRLTPRP	condition met
RRIRTRPPRLPRPRPRPFELPRP	condition not met
RRIRTRPPRLPRPRPRPKELPRP	condition not met
RRIRLRPPRLPRPRPRPYPHPRP	condition not met
RRIRFRPPRLPRPRPRPHRAPRP	condition not met
RRIRMRPPRLPRPRPRPLFCPRP	condition not met
RRIRTRPPRLPRPRPRPAMCPRP	condition not met
RRIRGRPPRLPRPRPRPPPVPRP	condition met
RRIRLRPPRLPRPRPRPCLCPRP	condition not met
RRIRHRPPRLPRPRPRPGRNPRP	condition not met
RRIRARPPRLPRPRPRPMWSPRP	condition not met
RRIRIRPPRLPRPRPRPNAMPRP	condition not met
